Target: Fes (UniProt P07332)
Sequence (P07332 whole entry, looked up): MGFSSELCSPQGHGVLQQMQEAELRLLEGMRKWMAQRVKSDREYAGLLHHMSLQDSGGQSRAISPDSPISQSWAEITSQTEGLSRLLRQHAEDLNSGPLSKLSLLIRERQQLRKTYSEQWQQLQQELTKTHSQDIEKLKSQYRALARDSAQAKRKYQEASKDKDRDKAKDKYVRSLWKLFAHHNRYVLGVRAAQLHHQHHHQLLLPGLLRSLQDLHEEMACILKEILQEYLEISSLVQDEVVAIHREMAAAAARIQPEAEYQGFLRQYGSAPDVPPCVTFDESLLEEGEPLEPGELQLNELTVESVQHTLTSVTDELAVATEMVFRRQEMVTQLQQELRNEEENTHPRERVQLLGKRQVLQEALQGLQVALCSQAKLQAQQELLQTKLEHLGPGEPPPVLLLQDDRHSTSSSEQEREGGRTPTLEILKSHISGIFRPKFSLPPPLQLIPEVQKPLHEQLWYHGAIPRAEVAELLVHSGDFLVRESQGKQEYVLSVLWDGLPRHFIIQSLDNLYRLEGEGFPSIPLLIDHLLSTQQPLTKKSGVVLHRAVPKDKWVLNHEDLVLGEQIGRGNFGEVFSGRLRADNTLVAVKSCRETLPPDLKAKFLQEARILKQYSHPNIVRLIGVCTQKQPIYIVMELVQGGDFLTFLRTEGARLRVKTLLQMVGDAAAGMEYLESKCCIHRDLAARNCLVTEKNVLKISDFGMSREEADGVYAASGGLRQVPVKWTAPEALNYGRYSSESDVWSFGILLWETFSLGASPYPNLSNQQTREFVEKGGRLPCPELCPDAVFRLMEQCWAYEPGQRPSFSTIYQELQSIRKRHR
Test: phosphorylation enrichment, bacterial display (enrichment ratio); higher = better substrate or ligand; peptides without Tyr show the background;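 note: 11-residue human phosphosite peptides and single-mutation variants displayed on the E. coli surface, counted by deep sequencing, each peptide's frequency after selection divided by its frequency in the unselected input library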;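 note: frequency after pTyr selection over input frequency; kinase dosed for 20-30% of maximal phosphorylation in three min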

biosequence: SVVVLYEPPEV [TP53_Y220_P219L]
targetUnderTest: Fes (UniProt P07332)
phosphorylation enrichment: 1.15
//
biosequence: GSSEGYLHMVH [NIPBL_Y247_D246G]
targetUnderTest: Fes (UniProt P07332)
phosphorylation enrichment: 0.679
//
biosequence: EQKKYYNATKK [SCN5A_Y1495_M1498T]
targetUnderTest: Fes (UniProt P07332)
phosphorylation enrichment: 0.54
//
biosequence: TTKGAYSLSIR [YES1_Y194]
targetUnderTest: Fes (UniProt P07332)
phosphorylation enrichment: 0.681
